I'd be grateful if you could share measured IC50 for these entries.
- target.or.test.system: P-selectin Rg (Homo sapiens)
- Construct: consists of the human lectin domain, the EGF domain, and two complement repeats of the human selectins
- Sequence (P16109 with tags, fused parts or gaps limits assumed): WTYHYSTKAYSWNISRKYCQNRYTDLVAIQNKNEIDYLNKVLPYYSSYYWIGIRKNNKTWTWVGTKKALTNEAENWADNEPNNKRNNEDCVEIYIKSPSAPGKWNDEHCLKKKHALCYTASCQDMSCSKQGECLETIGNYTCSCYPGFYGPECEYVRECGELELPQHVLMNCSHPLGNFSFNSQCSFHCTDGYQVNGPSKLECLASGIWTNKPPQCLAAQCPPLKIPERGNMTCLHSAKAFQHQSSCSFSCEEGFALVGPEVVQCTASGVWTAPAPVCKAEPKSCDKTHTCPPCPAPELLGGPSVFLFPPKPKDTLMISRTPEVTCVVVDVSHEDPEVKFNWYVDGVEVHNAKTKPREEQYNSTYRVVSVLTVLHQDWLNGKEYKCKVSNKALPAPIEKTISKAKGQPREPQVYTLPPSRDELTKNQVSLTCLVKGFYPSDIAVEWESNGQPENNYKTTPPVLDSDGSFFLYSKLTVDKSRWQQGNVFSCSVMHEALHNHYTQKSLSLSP
- experiment.description: HL-60 cell binding to P-selectin Rg
- test.context: HL-60 cells, binding to P-selectin Rg coated wells
Give bare numbers, in µM.

Examples from the recorded data:
CCCCCCCCCCCCC/C=C/[C@@H](OC(=O)c1ccccc1)[C@H](CO[C@H]1O[C@H](COS(=O)(=O)O)[C@@H](OS(=O)(=O)O)[C@H](OC(=O)c2ccccc2)[C@H]1OC(=O)c1ccccc1)NC(=O)CCCCCCCCCCCCCCC [Example 7]; 11
CCCCCCCCCCCCC/C=C/[C@@H](OC(=O)c1ccccc1)[C@H](CO[C@H]1O[C@H](COS(=O)(=O)O)[C@H](OS(=O)(=O)O)[C@H](OCc2ccccc2)[C@H]1OCc1ccccc1)NC(=O)CCCCCCCCCCCCCCC [Example 11]; 8.9
CCCCCCCC/C=C\CCCCCCCCCCCCCC(=O)N[C@@H](CO[C@H]1O[C@H](COS(=O)(=O)O)[C@H](OS(=O)(=O)O)[C@H](O)[C@H]1O)[C@H](O)/C=C/CCCCCCCCCCCCC [Example 4]; 8
CCCCCCCCCCCCC/C=C/[C@@H](OC(=O)c1ccccc1)[C@H](CO[C@H]1O[C@H](COS(=O)(=O)O)[C@H](O)[C@H](O)[C@H]1OS(=O)(=O)O)NC(=O)CCCCCCCCCCCCCCC [Example 15]; 5.2

Batch request: IC50 for each of the following compounds.
1. CCCCCCCCCCCCC/C=C/[C@@H](OC(=O)c1ccccc1)[C@H](CO[C@H]1O[C@H](COS(=O)(=O)O)[C@H](OS(=O)(=O)O)[C@H](OS(=O)(=O)O)[C@H]1OS(=O)(=O)O)NC(=O)CCCCCCCCCCCCCCC [Example 23]
2. CCCCCCCCCCCCC/C=C/[C@@H](O)[C@H](CO[C@H]1O[C@H](COS(=O)(=O)O)[C@H](OS(=O)(=O)O)[C@H](O)[C@H]1O)NC(=O)CCCCCCCCCCCCCCC [Example 2]
3. CCCCCCCCCCCCC/C=C/[C@@H](OC(=O)c1ccccc1)[C@H](CO[C@H]1O[C@H](COS(=O)(=O)O)[C@H](OS(=O)(=O)O)[C@H](OC(=O)c2ccccc2)[C@H]1OC(=O)c1ccccc1)NC(=O)CCCCCCCCCCCCCCC [Example 1]
4. CCCCCC/C=C/[C@@H](OC(=O)c1ccccc1)[C@H](CO[C@H]1O[C@H](COS(=O)(=O)O)[C@H](OS(=O)(=O)O)[C@H](OC(=O)c2ccccc2)[C@H]1OC(=O)c1ccccc1)NC(=O)CCCCC [Example 10]

2.6
17
8.3
8
